assay: Mean oral bioavailability in Swiss albino male mice at […] per compound (administered in a mixture of 5 compounds to 3 mice) assessed by LCMS/MS.; also: dose 2.5 mg/kg; assay type: ADME, organism-based; conditions: male, Swiss albino, mouse, in vivo, read-out: Bioavailability
endpoint: bioavailability (%)

Below are worked cases with known answers.
{"substance smiles": "CC(C)c1nc2cnc(-c3ccc(F)c(C(F)(F)F)c3)cn2c1-c1ccc2[nH]ncc2c1", "u": "%", "bioavailability": 81.8}
{"substance smiles": "CCc1nc2cnc(-c3cccc(C(F)(F)F)c3)cn2c1-c1ccc(O)cc1F", "u": "%", "bioavailability": 7.35}
{"substance smiles": "CC1(c2nc3cnc(-c4ccc(F)c(C(F)(F)F)c4)cn3c2-c2c(F)cc(O)cc2F)CC1", "u": "%", "bioavailability": 55.6}

A = CC(C)c1nc2cnc(-c3cccc(C(F)(F)F)c3)cn2c1-c1ccc2[nH]ncc2c1F
B = COc1ccc(-c2c(C(C)C)nc3cnc(-c4ccnc(N(C)C)c4)cn23)cc1O
Exercise: Could you kindly indicate whether A or B has the higher bioavailability value? Let me know the label of the one you choose.
Key: A
(A: 63.2%, B: 6.57%)

----------
test: Concentration of drug in plasma at 4h following oral drug adminstration at given dose. Determined by LCMS/MS; assay type: ADME, organism-based; settings: CD1, mouse
endpoint: concentration at 4 h (ng/mL)

Below are worked cases with known answers.
{"substance smiles": "Fc1ccc(-c2cn3c(-c4ccc5[nH]ncc5c4F)c(C(F)(F)F)nc3cn2)cc1C(F)(F)F", "concentration at 4 h / ng/mL": 1500}
{"substance smiles": "CC(C)c1nc2cnc(-c3ccc(F)c(C(F)(F)F)c3)cn2c1-c1ccc2[nH]ncc2c1F", "concentration at 4 h / ng/mL": 1150}
{"substance smiles": "CC(C)c1cc(-c2cn3c(-c4ccc5[nH]ncc5c4F)c(C(F)(F)F)nc3cn2)ccc1F", "concentration at 4 h / ng/mL": 1250}
{"substance smiles": "Oc1cc(F)c(-c2c(C3CC3)nc3cnc(-c4ccc(F)c(C(F)(F)F)c4)cn23)c(F)c1", "concentration at 4 h / ng/mL": 1040}
{"substance smiles": "Fc1ccc(-c2cn3c(-c4ccc5[nH]ncc5c4F)c(C4CC4)nc3cn2)cc1C(F)(F)F", "concentration at 4 h / ng/mL": 75}

I = CC(C)c1cc(-c2cn3c(-c4ccc5[nH]ncc5c4F)c(C4CC4)nc3cn2)ccc1F
II = Fc1c(-c2c(C(F)(F)F)nc3cnc(-c4cccc(C(F)(F)C(F)(F)F)c4)cn23)ccc2[nH]ncc12
III = Fc1ccc(-c2cn3c(-c4ccc5[nH]ncc5c4F)c(C(F)(F)F)nc3cn2)cc1C(F)(F)C(F)(F)F
Exercise: Place the items in sequence of falling concentration at 4 h. Answer format: list of labels, ordered as asked.
Key: II, III, I

----------
test: Mean time to peak plasma concentration in Swiss albino male mice at […] per compound (administered orally in a mixture of 5 compounds to 3 mice) assessed by LCMS/MS.; type: ADME, organism-based; settings: mouse, po
endpoint: Tmax (min)

Below are worked cases with known answers.
{"substance smiles": "COc1ccc(-c2c(C(F)(F)F)nc3cnc(-c4cccc(C(F)(F)C(F)(F)F)c4)cn23)cc1O", "endpoint": "Tmax", "u": "min", "value measured": 15}
{"substance smiles": "CC1(c2nc3cnc(-c4ccc(F)c(C(F)(F)F)c4)cn3c2-c2c(F)cc(O)cc2F)CC1", "endpoint": "Tmax", "u": "min", "value measured": 15}
{"substance smiles": "CC(C)c1nc2cnc(-c3cccc(S(F)(F)(F)(F)F)c3)cn2c1-c1c(F)cc(O)cc1F", "endpoint": "Tmax", "u": "min", "value measured": 15}
{"substance smiles": "Cc1nc2cnc(-c3ccc(F)c(C(F)(F)F)c3)cn2c1-c1ccc(O)cc1F", "endpoint": "Tmax", "u": "min", "value measured": 15}
{"substance smiles": "Cc1nc2cnc(-c3ccc(F)c(C(F)(F)F)c3)cn2c1-c1c(F)cc(O)cc1F", "endpoint": "Tmax", "u": "min", "value measured": 15}
{"substance smiles": "Cc1nc2cnc(-c3cccc(C(F)(F)F)c3)cn2c1-c1c(F)cc(O)cc1F", "endpoint": "Tmax", "u": "min", "value measured": 15}

P = COc1ccc(-c2c(C(C)C)nc3cnc(-c4ccc(F)c(C(F)(F)F)c4)cn23)cc1O
Q = CC(C)c1nc2cnc(-c3ccc(F)c(C(F)(F)F)c3)cn2c1-c1ccc2[nH]ncc2c1
R = Fc1ccc(-c2cn3c(-c4ccc5[nH]ncc5c4F)c(C(F)(F)F)nc3cn2)cc1C1CCC1
Exercise: Place the items in sequence of falling Tmax. Answer format: list of labels, ordered as asked.
Key: R, Q, P
(R: 79.8 min, Q: 40 min, P: 15 min)
